Target: SNX27, Q96L92
Assay: holdup assay
Design: key: below the threshold = too weak to quantify, mostly under pKd 3.1 to 4
Conditions: plain residues with an end cap or a label only (N-terminal biotin on a linker: ado-ado)
PROPERTY_MEASURED: pKd

NNNVVKVDSV [MTNR1A, P48039]
below the threshold
ARESQKVSHV [FAM110B, Q8TC76]
4.42
AQRARSPSDV [GPR12, P47775]
below the threshold
KKMLQRRTLL [OR8G1, Q15617]
3.75
